Target: Limk1 (Homo sapiens)
Sequence (P53667 285-638): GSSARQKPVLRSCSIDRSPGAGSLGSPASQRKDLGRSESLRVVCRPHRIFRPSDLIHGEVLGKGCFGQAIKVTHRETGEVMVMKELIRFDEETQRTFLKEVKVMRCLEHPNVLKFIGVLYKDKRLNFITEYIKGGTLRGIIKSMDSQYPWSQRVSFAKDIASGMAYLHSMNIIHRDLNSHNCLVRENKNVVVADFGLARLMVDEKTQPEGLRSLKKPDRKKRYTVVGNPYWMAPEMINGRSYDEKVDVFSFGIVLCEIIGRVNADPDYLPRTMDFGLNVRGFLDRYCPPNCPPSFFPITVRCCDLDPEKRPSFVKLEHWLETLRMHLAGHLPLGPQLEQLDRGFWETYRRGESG
Assay: Limk1 biochemical assay (Reaction Biology, 10-dose IC50)
Parameters: His; purchased Reaction Biology Corporation; host or cells: insect cells
Conditions: Table 8; read-out: LIMK1 IC50
Below: a set of entries, each annotated with reported IC50.
Report only the number, with the unit nM understood.

Check out these entries, answers already filled in.
COMPOUND	REPORTED_MEASUREMENT
CCOC(=O)c1ccc2nc(N3CCN(c4ncnc5[nH]cc(Cl)c45)[C@H](C)C3)[nH]c2c1 [Compound R10659]	45
Cc1c[nH]c2ncnc(N3CCC(c4nc5cc(C#N)ccc5[nH]4)CC3)c12 [Compound R8212]	44
CC1(c2nc3ccc(C(=O)NC4CCC4)cc3[nH]2)CCN(c2ncnc3[nH]ccc23)CC1 [Compound R8482]	41
COC(=O)c1ccc2[nH]c(C3CCN(c4ncnc5[nH]cc(Cl)c45)CC3)nc2c1 [Compound R10015]	38
Cc1c[nH]c2ncnc(-c3ccc(-c4nc5ccc(C(=O)NC6CCCC6)cc5[nH]4)c(F)c3)c12 [Compound R8584]	50

IN: Can you look up IC50 on Limk1 (Homo sapiens) for CC(C)NC(=O)c1ccc2[nH]c(N3CCN(c4ncnc5[nH]cc(Cl)c45)C[C@@H]3C)nc2c1 [Compound R10543] ?
OUT: 5
